- run.parameters: 323.15 K; 20000 kPa; Liquid
Reported values of mass density for individual entries

molecule	scale.unit	mass density
CCn1cc[n+](C)c1.F[B-](F)(F)F [1-ethyl-3-methylimidazolium tetrafluoroborate]	kg/m3	1289
CCn1cc[n+](C)c1.O=S(=O)([N-]S(=O)(=O)C(F)(F)F)C(F)(F)F	kg/m3	1508
CCCCCCCCn1cc[n+](C)c1.O=S(=O)([N-]S(=O)(=O)C(F)(F)F)C(F)(F)F	kg/m3	1311
CCCCCCCn1cc[n+](C)c1.O=S(=O)([N-]S(=O)(=O)C(F)(F)F)C(F)(F)F	kg/m3	1338
